The measurements presented in this section are drawn from ChEMBL document CHEMBL4364317.

Listing of entries alongside the reported pEC50.
System: A549
Assay: Anticancer activity against human A549 cells measured after 96 hrs by sulforhodamine B assay
Format: functional, cell-based
Details: A549, 96 h
# pEC50: negative log10 of molar concentration; output just the value

Sample answers from the record:
Prompt: Endpoint output: pEC50 of CC1(C)CC[C@]2(C(=O)O)CC[C@]3(C)C(=CC[C@@H]4[C@@]5(C)C[C@@H](OC(=O)c6ccccc6)[C@H](OC(=O)c6ccccc6)C(C)(C)[C@@H]5CC[C@]43C)[C@@H]2C1 . Value?
Response: 4.76

Prompt: Endpoint output: pEC50 of CC(=O)O[C@@H]1C[C@]2(C)[C@H]3CC=C4[C@@H]5CC(C)(C)CC[C@]5(C(=O)O)CC[C@@]4(C)[C@]3(C)CC[C@H]2C(C)(C)[C@H]1OC(C)=O . Value?
Response: 5.38

***
Prompt: Endpoint output: pEC50 of CC1(C)CC[C@]2(C(=O)O)CC[C@]3(C)C(=CC[C@@H]4[C@@]5(C)C[C@@H](OC(=O)c6ccccc6Cl)[C@H](O)C(C)(C)[C@@H]5CC[C@]43C)[C@@H]2C1 . Value?
Response: 5.12

* * *

Listing of entries alongside the reported pEC50.
System: MCF7
Assay: Anticancer activity against human MCF7 cells measured after 96 hrs by sulforhodamine B assay
Type: functional, cell-based
Conditions: MCF7, 96 h
# pEC50: negative log10 of molar concentration; output just the value

Sample answers from the record:
Prompt: Endpoint output: pEC50 of CC1(C)CC[C@]2(C(=O)O)CC[C@]3(C)C(=CC[C@@H]4[C@@]5(C)C[C@@H](OC(=O)c6ccccc6Cl)[C@H](O)C(C)(C)[C@@H]5CC[C@]43C)[C@@H]2C1 . Value?
Response: 5.25

Prompt: Endpoint output: pEC50 of CC(=O)O[C@@H]1C[C@]2(C)[C@H]3CC=C4[C@@H]5CC(C)(C)CC[C@]5(C(=O)O)CC[C@@]4(C)[C@]3(C)CC[C@H]2C(C)(C)[C@H]1OC(C)=O . Value?
Response: 5.07

***
Prompt: Endpoint output: pEC50 of CC1(C)CC[C@]2(C(=O)O)CC[C@]3(C)C(=CC[C@@H]4[C@@]5(C)C[C@@H](O)[C@H](O)C(C)(C)[C@@H]5CC[C@]43C)[C@@H]2C1 . Value?
Response: 4.61

* * *

Listing of entries alongside the reported pEC50.
Tested on: MCF7
Test: Anticancer activity against human MCF7 cells measured after 96 hrs by sulforhodamine B assay
Type: functional, cell-based
Conditions: MCF7, 96 h
# pEC50: negative log10 of molar concentration; output just the value

Sample answers from the record:
Prompt: Endpoint output: pEC50 of CC1(C)CC[C@]2(C(=O)O)CC[C@]3(C)C(=CC[C@@H]4[C@@]5(C)C[C@@H](O)[C@H](OC(=O)c6ccccc6F)C(C)(C)[C@@H]5CC[C@]43C)[C@@H]2C1 . Value?
Response: 5.17

Prompt: Endpoint output: pEC50 of CC1(C)CC[C@]2(C(=O)O)CC[C@]3(C)C(=CC[C@@H]4[C@@]5(C)C[C@@H](O)[C@H](OC(=O)c6cc([N+](=O)[O-])cc([N+](=O)[O-])c6)C(C)(C)[C@@H]5CC[C@]43C)[C@@H]2C1 . Value?
Response: 5.38

Please look at the following molecule next.
Prompt: Endpoint output: pEC50 of CC1(C)CC[C@]2(C(=O)O)CC[C@]3(C)C(=CC[C@@H]4[C@@]5(C)C[C@@H](OC(=O)c6cc([N+](=O)[O-])cc([N+](=O)[O-])c6)[C@H](O)C(C)(C)[C@@H]5CC[C@]43C)[C@@H]2C1 . Value?
Response: 5.29
